Test system: rat N-methyl-N-nitrosourea (MNU)-induced retinal degeneration model
Test description: Retinal degeneration inhibitory activity in rat MNU-induced model (retinal volume by OCT)
Type: in vivo
Condition notes: po, 168 h, MNU 50 mg/kg i.p., test compound 10 mg/kg orally once 30 minutes before MNU, seventh day, Brown Norway male rats, read-out: Retinal volume reduction inhibition rate (%)
This section presents compounds with their documented inhibition in vivo at 10 mg/kg values.
Result type: inhibition in vivo at 10 mg/kg (%)

>>> experimental_result("O=c1[nH]c2cc(CN3CCN(c4ccc(Cl)cn4)CC3)cn2c2ccccc12")
72
>>> experimental_result("COc1ccc(N2CCN(Cc3cc4[nH]c(=O)c5ccccc5n4c3)CC2)cc1")
29
>>> experimental_result("O=c1[nH]c2cc(CN3CCC(c4ccccc4)CC3)cn2c2ccccc12")
16
>>> experimental_result("O=c1[nH]c2cc(CN3CCN(c4ccccn4)CC3)cn2c2ccccc12")
48
>>> experimental_result("O=c1[nH]c2cc(CN3CCN(c4ccc(F)cc4F)CC3)cn2c2ccccc12")
61
>>> experimental_result("O=c1[nH]c2cc(CN3CCN(c4ccccn4)CC3)cn2c2ccc(F)cc12")
81
>>> experimental_result("O=c1[nH]c2cc(CN3CCN(c4ccccc4F)CC3)cn2c2ccccc12")
25
>>> experimental_result("O=c1[nH]c2cc(CN3CCC(c4ccc(F)cc4)CC3)cn2c2ccccc12")
33
>>> experimental_result("O=c1[nH]c2cc(CN3CCN(c4ccc5c(c4)OCO5)CC3)cn2c2ccccc12")
88
>>> experimental_result("O=c1[nH]c2cc(CN3CC=C(c4ccc(Cl)cc4)CC3)cn2c2ccccc12")
69
>>> experimental_result("COc1cc(F)ccc1N1CCN(Cc2cc3[nH]c(=O)c4ccccc4n3c2)CC1")
84
>>> experimental_result("[2H]C([2H])(c1cc2[nH]c(=O)c3ccccc3n2c1)N1CCN(c2ccc(F)cc2)CC1")
94
>>> experimental_result("O=c1[nH]c2cc(CN3CC=C(c4ccc(F)cc4)CC3)cn2c2ccccc12")
39

---

This section presents compounds with their documented inhibition at 10 µM values.
Tgt: human recombinant PARP1 (Homo sapiens, UniProt P09874)
Construct: purchased Trevigen 4677-096-K
Sequence (P09874 whole entry): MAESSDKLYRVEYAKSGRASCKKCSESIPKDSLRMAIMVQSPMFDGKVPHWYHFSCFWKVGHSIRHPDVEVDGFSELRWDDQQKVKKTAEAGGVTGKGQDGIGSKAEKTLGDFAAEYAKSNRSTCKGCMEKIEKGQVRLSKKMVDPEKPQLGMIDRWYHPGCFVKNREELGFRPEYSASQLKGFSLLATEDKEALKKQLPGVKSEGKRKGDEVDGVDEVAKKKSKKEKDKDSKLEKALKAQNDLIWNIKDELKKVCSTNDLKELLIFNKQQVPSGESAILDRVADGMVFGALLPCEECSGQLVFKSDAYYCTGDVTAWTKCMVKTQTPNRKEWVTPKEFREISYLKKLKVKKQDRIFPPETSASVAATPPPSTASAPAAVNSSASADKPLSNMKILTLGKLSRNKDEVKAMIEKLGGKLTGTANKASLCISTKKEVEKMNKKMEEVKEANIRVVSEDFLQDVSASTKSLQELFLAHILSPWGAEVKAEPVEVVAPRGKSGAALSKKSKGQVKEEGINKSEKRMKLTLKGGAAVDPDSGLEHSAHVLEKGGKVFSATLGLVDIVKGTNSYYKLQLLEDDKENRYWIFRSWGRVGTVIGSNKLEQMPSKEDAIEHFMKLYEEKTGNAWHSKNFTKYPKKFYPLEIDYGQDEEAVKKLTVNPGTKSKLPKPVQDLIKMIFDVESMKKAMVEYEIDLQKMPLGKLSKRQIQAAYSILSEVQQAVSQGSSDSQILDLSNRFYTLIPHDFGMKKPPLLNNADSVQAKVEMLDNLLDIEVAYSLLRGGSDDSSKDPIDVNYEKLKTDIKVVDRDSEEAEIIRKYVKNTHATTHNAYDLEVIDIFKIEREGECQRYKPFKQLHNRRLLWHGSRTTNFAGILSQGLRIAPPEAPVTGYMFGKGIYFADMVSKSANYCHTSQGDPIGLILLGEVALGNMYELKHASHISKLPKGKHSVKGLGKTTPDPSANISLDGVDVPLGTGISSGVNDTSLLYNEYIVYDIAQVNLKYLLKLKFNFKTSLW
Test description: PARP inhibitory activity measurement test (Universal Colorimetric PARP Assay kit, Trevigen)
Format: biochemical
Condition notes: compound concentration: 10 μM, read-out: PARP1 inhibition rate (%)
Result type: inhibition at 10 µM

>>> experimental_result("O=c1[nH]c2cc(CN3CCC(c4ccccc4)CC3)cn2c2ccccc12")
"96%"
>>> experimental_result("CN1CCN(Cc2cc3[nH]c(=O)c4ccccc4n3c2)CC1")
"98%"
>>> experimental_result("CN1CCCN(C(=O)c2cc3[nH]c(=O)c4ccccc4n3c2)CC1")
"92%"
>>> experimental_result("CN(CCCc1ccccc1)Cc1cc2[nH]c(=O)c3ccccc3n2c1")
"93%"
>>> experimental_result("O=c1[nH]c2cc(CN3CCN(c4nccs4)CC3)cn2c2ccccc12")
"99%"
>>> experimental_result("O=C(c1cc2[nH]c(=O)c3ccccc3n2c1)N1CCCN(C(=O)C2CC2)CC1")
"90%"
>>> experimental_result("O=C(c1cc2[nH]c(=O)c3ccccc3n2c1)N1CC=C(c2ccc(Cl)cc2)CC1")
"44%"
>>> experimental_result("O=C(c1cc2[nH]c(=O)c3ccccc3n2c1)N1CC=C(c2ccccc2)CC1")
"23%"
>>> experimental_result("CC(C)Oc1ccc(N2CCN(Cc3cc4[nH]c(=O)c5ccccc5n4c3)CC2)cc1")
"98%"
